Where these numbers come from: ChEMBL document CHEMBL4823271

We begin with a simple list: items and their reported MIC.
# Tested on: Mycobacterium tuberculosis
# assay.overview: Antimycobacterial activity against Streptomycin-resistant Mycobacterium tuberculosis H37Rv ATCC 35820 assessed as inhibition of bacterial growth incubated for 48 hrs by broth microdilution assay
# Assay type: functional
// note: answer is a bare numeric in µg/mL

Please review the entries below; each comes with its answer.
- COC(=O)c1cc(-c2cccc(NC(=O)c3ccc(/C=C/C(=O)c4ccc(OC)cc4OC)cc3)c2)on1: 2
- NNC(=O)c1ccncc1: 0.03
- COC(=O)c1cc(-c2cccc(NC(=O)c3ccc(/C=C/C(=O)c4ccccc4Cl)cc3)c2)on1: 0.5
- CCCOc1ccc(C(=O)/C=C/c2ccc(C(=O)Nc3cccc(-c4cc(C(=O)OC)no4)c3)cc2)cc1: 2
- CC[C@@H](CO)NCCN[C@@H](CC)CO: 1

Now, please, on to the next compound.
Query :: Fill in the blank: the reported MIC of COC(=O)c1cc(-c2cccc(NC(=O)c3ccc(/C=C/C(=O)c4ccc(Cl)cc4Cl)cc3)c2)on1 is ____.
Result :: 1

====

# Tested on: Mycobacterium tuberculosis
# assay.overview: Antimycobacterial activity against Streptomycin-resistant Mycobacterium tuberculosis H37Rv ATCC 35820 assessed as inhibition of bacterial growth incubated for 48 hrs by broth microdilution assay
# Format: functional
parameter.measured: MIC (µg/mL)
// note: answer is a bare numeric in µg/mL

Please review the entries below; each comes with its answer.
* CO[C@H]1/C=C/O[C@@]2(C)Oc3c(C)c(O)c4c(O)c(c(/C=N/N5CCN(C)CC5)c(O)c4c3C2=O)NC(=O)/C(C)=C\C=C\[C@H](C)[C@H](O)[C@@H](C)[C@@H](O)[C@@H](C)[C@H](OC(C)=O)[C@@H]1C [RIFAMPIN] | 0.03
* CCOc1ccc(C(=O)/C=C/c2ccc(C(=O)Nc3cccc(-c4cc(C(=O)OC)no4)c3)cc2)cc1 | 0.5
* COC(=O)c1cc(-c2cccc(NC(=O)c3ccc(/C=C/C(=O)c4ccc(F)cc4F)cc3)c2)on1 | 2
* COC(=O)c1cc(-c2cccc(NC(=O)c3ccc(/C=C/C(=O)c4ccc(CC(C)C)cc4)cc3)c2)on1 | 1
* CCOC(=O)c1cc(/C=C/c2c(Cl)cncc2Cl)on1 | 8

Query :: Fill in the blank: the reported MIC of COC(=O)c1cc(-c2cccc(NC(=O)c3ccc(/C=C/C(=O)c4ccc(N5CCOCC5)cc4)cc3)c2)on1 is ____.
Result :: 2

Query :: Fill in the blank: the reported MIC of COC(=O)c1cc(-c2ccc(NC(=O)c3ccc(/C=C/C(=O)c4ccc(Cl)cc4)cc3)cc2)on1 is ____.
Result :: 8

Query :: Fill in the blank: the reported MIC of COC(=O)c1cc(-c2cccc(NC(=O)c3ccc(/C=C/C(=O)c4ccc(C)cc4)cc3)c2)on1 is ____.
Result :: 0.25

Query :: Fill in the blank: the reported MIC of COC(=O)c1cc(-c2cccc(NC(=O)c3ccc(/C=C/C(=O)c4ccc(Cl)cc4)cc3)c2)on1 is ____.
Result :: 2

Query :: Fill in the blank: the reported MIC of COC(=O)c1cc(-c2cccc(NC(=O)c3ccc(/C=C/C(=O)c4ccccc4C)cc3)c2)on1 is ____.
Result :: 2

Query :: Fill in the blank: the reported MIC of CCOC(=O)c1cc(-c2cccc(NC(=O)c3ccc(/C=C/C(=O)c4ccc(Cl)cc4)cc3)c2)on1 is ____.
Result :: 64

Query :: Fill in the blank: the reported MIC of COC(=O)c1cc(-c2cccc(NC(=O)c3ccc(/C=C/C(=O)c4cccc(Cl)c4)cc3)c2)on1 is ____.
Result :: 0.5
